# Test system: pERK in A375 cells
# assay overview: In Cell Western (ICW) assay, pERK in A375 cells
# Format: cell-based
# run parameters: Homo sapiens, A-375, 3 h treatment
# Experimental: Cell lines A375, A2058 and RKO obtained from the ATCC as provided above, were grown, and after attaining ˜80% confluency were trypsinized, centrifuged and resuspended in fresh media. […] The fluorescence emission was then read at 615 nm with an excitation wavelength of 340 nm using a Victor V5 Fluorometer (Perkin Elmer, US). […]
Provide the recorded IC50 for the entries that follow.

Fill in reported IC50 for this entry: CCCS(=O)(=O)Nc1ccc(F)c(-c2cc(OC)c3nc(-c4ccc(N)nc4)nc(N4CCOCC4)c3c2)c1F [Example 75] 1 to 100 nM

Give IC50 for the following molecule: COc1cc(-c2cccc(NS(=O)(=O)CCCF)c2F)cc2c(N3CCOC[C@H]3C)nc(-c3cnc(N)nc3)nc12 [Example 43] 1 to 100 nM

For the molecule C[C@@H]1COCCN1c1nc(-c2cnc(N)cc2F)nc2ccc(-c3cccc(NS(=O)(=O)CCCF)c3F)nc12 [Example 140] , report IC50. 100 to 1000 nM

Identify measured IC50 associated with CCCS(=O)(=O)Nc1cccc(-c2cc(OC)c3nc(-c4ccc(N)nc4)nc(N4CCOCC4)c3c2)c1F [Example 17] 100 to 1000 nM

Return IC50 (reported value) for this molecule: CC(C)Oc1cc(-c2cccc(NS(=O)(=O)CCCF)c2F)cc2c(N3CCOCC3)nc(-c3ccc(N)nc3)nc12 [Example 55] 1 to 100 nM

Please give the documented IC50 of Nc1cc(C(F)(F)F)c(-c2nc(N3CCOCC3)c3nc(-c4cccc(NS(=O)(=O)c5c(F)cccc5F)c4F)ccc3n2)cn1 [Example 106] 1000 to 10000 nM

Please report the measured IC50 for CCOc1cc(-c2cccc(NS(=O)(=O)CCCF)c2F)cc2c(N3CCOCC3)nc(-c3ccc(N)nc3)nc12 [Example 52] 1 to 100 nM

// fetch IC50 given entry COc1cc(-c2c(F)ccc(NS(=O)(=O)c3c(F)cccc3F)c2F)cc2c(N3CCOCC3)nc(-c3cnc(N)nc3)nc12 [Example 76] 100 to 1000 nM

Tell me its IC50 given Cc1cc(-c2cccc(NS(=O)(=O)CCCF)c2F)cc2c(N3CCOCC3)nc(-c3cnc(N)nc3)nc12 [Example 116] as the entry. 1 to 100 nM

----------
observed property: IC50

# return IC50 for Cc1nc(N)ncc1-c1nc(N2CCOCC2)c2nc(-c3cccc(NS(=O)(=O)CCCF)c3F)ccc2n1 , test system: PI3Kα (Homo sapiens, UniProt P42336) 1 to 100 nM

Quote PI3Kα (Homo sapiens, UniProt P42336) IC50 for entry Nc1cc(C(F)(F)F)c(-c2nc(N3CCOCC3)c3nc(-c4cccc(NS(=O)(=O)c5c(F)cccc5F)c4F)ccc3n2)cn1 . 1 to 100 nM

Please indicate recorded IC50 of COc1cc(-c2c(F)ccc(NS(=O)(=O)CCCF)c2F)cc2c(N3CCOCC3)nc(-c3cnc(N)cc3C(F)(F)F)nc12 measured with PI3Kα (Homo sapiens, UniProt P42336). 100 to 1000 nM

Check PI3Kα (Homo sapiens, UniProt P42336) data and give IC50 for COc1cc(-c2cccc(NS(=O)(=O)CCCF)c2F)cc2c(N3CCOCC3)nc(-c3cccc4[nH]ncc34)nc12 . 100 to 1000 nM

Check PI3Kα (Homo sapiens, UniProt P42336) data and give IC50 for Nc1cc(C(F)(F)F)c(-c2nc(N3CCOCC3)c3nc(-c4cccc(NS(=O)(=O)c5cc(F)ccc5F)c4F)ccc3n2)cn1 . 1 to 100 nM

Please report IC50 with PI3Kα (Homo sapiens, UniProt P42336) for item Cc1nc(N)ncc1-c1nc(N2CCOC[C@@H]2C)c2nc(-c3cccc(NS(=O)(=O)CCCF)c3F)ccc2n1 . 1 to 100 nM

Please indicate recorded IC50 of NCCOc1cc(-c2cccc(NS(=O)(=O)CCCF)c2F)cc2c(N3CCOCC3)nc(-c3ccc(N)nc3)nc12 measured with PI3Kα (Homo sapiens, UniProt P42336). 100 to 1000 nM

Tell me IC50 of Nc1ncc(-c2nc(N3CCOCC3)c3cc(-c4cccc(NS(=O)(=O)CCCF)c4F)cc(N4CCOCC4)c3n2)cn1 when tested on PI3Kα (Homo sapiens, UniProt P42336). 100 to 1000 nM

Supply IC50 measured with PI3Kα (Homo sapiens, UniProt P42336) for CCCS(=O)(=O)Nc1cccc(-c2cc(OC)c3nc(-c4cnc(N)c(Cl)c4)nc(N4CCOCC4)c3c2)c1F . 100 to 1000 nM

Recall the reported IC50 of CCCS(=O)(=O)Nc1cccc(-c2cc(OC)c3nc(-c4ccc(NCCN)nc4)nc(N4CCOCC4)c3c2)c1F on PI3Kα (Homo sapiens, UniProt P42336) and write it down. 100 to 1000 nM

Please tell me the measured IC50 for C[C@@H]1COCCN1c1nc(-c2ccc(N)nc2)nc2ccc(-c3cccc(NS(=O)(=O)CCCF)c3F)nc12 ; system: PI3Kα (Homo sapiens, UniProt P42336). 100 to 1000 nM

Where do these numbers come from? They come from patent US9499495B2.
